tested on: 966289-007-R4-J1-PDC complex spheroid viability; experiment: Anticancer human tumor 966289-007-R4-J1-PDC patient-derived pancreatic adenocarcinoma cell line growth inhibition [RAS]; conditions: second compound 0.000949 µM; first compound 0.01 µM; stronger effect = lower value;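 further: spheroids exposed to agents for one week before readout; percent viability relative to DMSO vehicle control wells as 100%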
result_type: viability, T/C (%)
Entry rule: numbers only, all in %.

Illustrative cases are given below, each with its answer.
| compound | measurement_target | result_number |
| --- | --- | --- |
| Nc1ccn(C2OC(CO)C(O)C2(F)F)c(=O)n1 (centres undefined) + CCn1c(-c2cc(N3CCN(C)CC3)cnc2C(C)OC)c2c3cc(ccc31)-c1csc(n1)CC(NC(=O)C1CC1C)C(=O)N1CCCC(N1)C(=O)OCC(C)(C)C2 | 966289-007-R4-J1-PDC complex spheroid viability | 12.9 |
| C=CC(=O)N1CCN(c2nc(OCC3CCCN3C)nc3c(F)c(-c4nc(N)cc(C)c4C(F)(F)F)c(Cl)cc23)C(C)C1 (centres undefined) + CCn1c(-c2cccnc2C(C)OC)c2c3cc(ccc31)N1CCOC(CC(NC(=O)C(C(C)C)N(C)C(=O)C3(F)CCN(C(=O)C#CC(C)(C)N(C)C)CC3)C(=O)N3CCCC(N3)C(=O)OCC(C)(C)C2)C1 | 966289-007-R4-J1-PDC complex spheroid viability | 74.5 |
| CC(C)n1nc(-c2ccc3oc(N)nc3c2)c2c(N)ncnc21 + CCn1c(-c2cc(N3CCN(C)CC3)cnc2C(C)OC)c2c3cc(ccc31)-c1csc(n1)CC(NC(=O)C1CC1C)C(=O)N1CCCC(N1)C(=O)OCC(C)(C)C2 | 966289-007-R4-J1-PDC complex spheroid viability | 78.5 |

--- query ---
Request: Quickly give me recorded viability, T/C for CC(C)n1nc(-c2ccc3oc(N)nc3c2)c2c(N)ncnc21 + CCn1c(-c2cccnc2C(C)OC)c2c3cc(ccc31)N1CCOC(CC(NC(=O)C(C(C)C)N(C)C(=O)C3(F)CCN(C(=O)C#CC(C)(C)N(C)C)CC3)C(=O)N3CCCC(N3)C(=O)OCC(C)(C)C2)C1
Result: 73.4
